System: MDA-MB231 cells
assay-method-text: MTT cytotoxicity assay
Type: cell-based
measurement-setup: Homo sapiens, MDA-MB-231, 48 h treatment, read-out: IC50 Value against breast cancer (MDA-MB231) cells
What pIC50 was measured for each of the following?
Just so you know, pIC50 here is -log10 of the concentration in molar units; reply with that number alone.

Could you please provide reported pIC50 for Oc1ccc(/C=C/c2cc(O)cc(O)c2)cc1 [Resveratrol] ? Thanks!
3.51

Could you please provide reported pIC50 for COc1cc(C2Oc3cc([C@H]4Oc5cc(O)cc(O)c5C(=O)[C@@H]4O)ccc3OC2CO)ccc1O (stereo partly shown) [Silibinin] ? Thanks!
3.68

Could you please provide reported pIC50 for COc1cc(/C=C/C(=O)CC(=O)/C=C/c2ccc(O)c(OC)c2)ccc1O [Curcumin] ? Thanks!
4.59

Could you please provide reported pIC50 for O=c1oc2c(O)c(O)cc3c(=O)oc4c(O)c(O)cc1c4c23 [Ellagic acid] ? Thanks!
4.70

----------
What pKi was measured for each of the following?
assay-target: PKM2 (Homo sapiens, UniProt P14618)
Sequence (P14618 whole entry): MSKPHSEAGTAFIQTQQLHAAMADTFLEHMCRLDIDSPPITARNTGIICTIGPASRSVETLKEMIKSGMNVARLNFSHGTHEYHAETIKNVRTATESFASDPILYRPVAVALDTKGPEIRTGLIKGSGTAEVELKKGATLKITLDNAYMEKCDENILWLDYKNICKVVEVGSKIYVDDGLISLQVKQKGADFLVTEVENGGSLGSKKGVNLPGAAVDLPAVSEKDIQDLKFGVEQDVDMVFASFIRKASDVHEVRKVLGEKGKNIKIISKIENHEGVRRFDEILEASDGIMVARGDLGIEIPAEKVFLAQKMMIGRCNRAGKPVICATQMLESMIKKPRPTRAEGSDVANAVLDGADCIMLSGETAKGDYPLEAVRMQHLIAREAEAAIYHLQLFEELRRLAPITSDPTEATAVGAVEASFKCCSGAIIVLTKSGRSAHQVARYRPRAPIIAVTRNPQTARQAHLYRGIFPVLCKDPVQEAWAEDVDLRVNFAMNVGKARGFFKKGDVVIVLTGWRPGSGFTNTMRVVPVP
Just so you know, pKi here is -log10 of the concentration in molar units; reply with that number alone.

Could you please provide reported pKi for COc1cc(/C=C/C(O)=C/C(=O)/C=C/c2ccc(O)cc2)ccc1O ? Thanks!
4.83

Could you please provide reported pKi for Oc1ccc(/C=C/c2cc(O)cc(O)c2)cc1 ? Thanks!
5.13

Could you please provide reported pKi for O=c1oc2c(O)c(O)cc3c(=O)oc4c(O)c(O)cc1c4c23 ? Thanks!
5.30

----------
assay-target: PKM2 (Homo sapiens)
assay-method-text: PKM2 enzymatic activity assay (LDH-coupled, NADH at 340 nm), inhibition studies
measurement-setup: recombinant PKM2; saturating PEP and ADP; six concentrations of test compound; read-out: IC50 Values against PKM2
What IC50 was measured for each of the following?
# value in µM; strip the unit string

Could you please provide reported IC50 for COc1cc(/C=C/C(=O)CC(=O)/C=C/c2ccc(O)c(OC)c2)ccc1O ? Thanks!
1.12

Could you please provide reported IC50 for OC[C@H]1O[C@@H](Oc2cc(O)cc(/C=C/c3ccc(O)cc3)c2)[C@H](O)[C@@H](O)[C@@H]1O ? Thanks!
25.4

Could you please provide reported IC50 for O=c1oc2c(O)c(O)cc3c(=O)oc4c(O)c(O)cc1c4c23 ? Thanks!
4.2

Could you please provide reported IC50 for Oc1ccc(/C=C/c2cc(O)cc(O)c2)cc1 ? Thanks!
3.07

Could you please provide reported IC50 for O=C(/C=C/c1ccc(O)c(O)c1)O[C@@H]1C[C@](O)(C(=O)O)C[C@@H](O)[C@H]1O ? Thanks!
43.4

Could you please provide reported IC50 for COc1cc(/C=C/C(O)=C/C(=O)/C=C/c2ccc(O)cc2)ccc1O ? Thanks!
21.4

Could you please provide reported IC50 for O=C(/C=C/c1ccc(O)cc1)CC(=O)/C=C/c1ccc(O)cc1 ? Thanks!
16

Could you please provide reported IC50 for COc1cc(C2Oc3cc([C@H]4Oc5cc(O)cc(O)c5C(=O)[C@@H]4O)ccc3OC2CO)ccc1O (some centres unmarked) ? Thanks!
0.91
